Tested on: NIH3T3
Experiment: Cytotoxic Profiling of Annotated Libraries Using Quantitative High-Throughput Screening (AID 1296008); further: on the % scale 0 is the no-effect control and ±100 the full control effect; nearly all actives have a fitted effect of over 60% in size
Conditions: Five cell lines viability, CellTiter-Glo ATP luminescence, 48-72 h; hits give low values
Method: Cell-based phenotypic screening is a commonly used approach to discover biological pathways, novel drug targets, chemical probes and high-quality hit-to-lead molecules. […] A pintool (Kalypsys) was used to transfer 23 nL of compound solution to the 1536-well assay plates. […] Plates were left at room temperature for 10 min before imaging the ATP-coupled luminescence using a ViewLux microplate imager (PerkinElmer, Waltham, MA).
Results filed as inconclusive are left out.
Listing of entries alongside the reported max response.

>  <molecule>
CC(=O)O[C@@H]1C[C@]2(C)[C@@]3(CCC4[C@@]5(C)CC[C@H](O[C@@H]6O[C@H](C(=O)O)[C@@H](O)[C@H](OC7OC(CO)C(O)C(O)[C@H]7O[C@@H]7O[C@@H](C)[C@H](O)[C@@H](O)[C@H]7O[C@@H]7OC[C@](O)(CO)[C@H]7O)[C@H]6OC6OC(CO)C(O)C(O)C6O)C(C)(C)C5CC[C@]42C)OC[C@@]12CCC(C)(C)CC23 (stereo partly drawn)

>  <unit-of-measure>
%

>  <max response>
0.621

$$$$
>  <molecule>
CCC(C)CNCC(=O)N1CCC2SC=CC2C1COc1cccc(C)c1 (stereo not drawn)

>  <unit-of-measure>
%

>  <max response>
-20.9

$$$$
>  <molecule>
C[C@@H]1CC[C@]2(C(=O)O)CC[C@]3(C)C(=CCC4[C@@]5(C)CC[C@H](O)[C@](C)(C(=O)O)C5CC[C@]43C)C2[C@]1(C)O (stereo partly drawn)

>  <unit-of-measure>
%

>  <max response>
-24.1

$$$$

----------
Test system: CASKI
Assay: Primary qHTS to identify gynecologic anti-cancer compounds using libraries of approved drugs and bioactive compounds (AID 1345084); further: on the % scale 0 is the no-effect control and ±100 the full control effect; nearly all actives have a fitted effect of over 55% in size
Conditions: Gynecologic cancer cell panel viability, ATPlite luminescence, 48 h; series mostly up to 57.5 µM
Description: National Center for Advancing Translational Sciences [NCATS] Assay Overview: Chemotherapeutic drug responses vary from cancer to cancer and from patient to patient. […] ATPlite is a luminescence based assay reliant on the conversion of a luciferase substrate to light in the presence of ATP. As a cytotoxic compound will suppress growth and decrease the number of cells, the concentration of ATP will decrease, and less light signal will be detected in the well. […]
Inconclusive results are not listed. Active and inactive are the calls of the source. The call rests on the fitted dose curve; in most records, active means well fitted cell-killing curve with a large enough effect; inconclusive means small, poorly fitted or top-dose-only effect, or effect the other way; inactive means flat fitted curve, though single readings scatter.

>  <compound>
CC1(CO)CC(O)[C@]2(C(=O)O)CCC34CC3(C=CC3[C@]5(C)C(CC[C@]34C)C(C)(CO)[C@@H](O)[C@H](O)[C@@H]5O)C2C1 (stereo partly specified)

>  <activity change, negative = cytotoxicity>
inactive

$$$$
>  <compound>
CCS(=O)c1nc(-c2cccc(OCc3ccccc3)c2)cc(C(F)(F)F)n1 (stereo unspecified)

>  <activity change, negative = cytotoxicity>
inactive

$$$$
>  <compound>
CC(C)(CO)c1cc2cc(NC(=O)C3(c4ccc5c(c4)OC(F)(F)O5)CC3)c(F)cc2n1CC(O)CO (stereo unspecified)

>  <activity change, negative = cytotoxicity>
inactive

$$$$
>  <compound>
CC(=O)O[C@H]1CC(C)(C)CC2[C@]13CO[C@@]21CCC2[C@@]4(C)CC[C@H](O[C@@H]5OC[C@H](O[C@@H]6O[C@H](CO)[C@@H](O)[C@H](O)[C@H]6O[C@@H]6OC[C@@H](O)[C@H](O)[C@H]6O)[C@H](O)[C@H]5O[C@@H]5O[C@H](CO)[C@@H](O)[C@H](O)[C@H]5O)[C@@](C)(CO)C4CC[C@@]2(C)[C@]1(C)C[C@H]3O (stereo partly specified)

>  <activity change, negative = cytotoxicity>
-20.7% [at 11.6 µM] (inactive)

$$$$
>  <compound>
CC(=O)NC[C@H]1CN(c2ccc(N3CCSCC3)c(F)c2)C(=O)O1

>  <activity change, negative = cytotoxicity>
inactive

$$$$
>  <compound>
CC1(C)CCCC2(C)C1C(OC(=O)/C=C/C=C/C=O)C=C1COC(=O)C12O (stereo unspecified)

>  <activity change, negative = cytotoxicity>
inactive

$$$$

This collection of values is drawn from PubChem BioAssay (NCATS).
